- target-or-system: GIST430/654 cell line expressing mutated constitutively active cKIT receptor tyrosine kinase (Δ560-576 deletion and V654A point mutation) (Homo sapiens, UniProt P10721, DEL560-576/V654A)
- Construct: endogenous in cells
- Sequence (P10721 with tags, fused parts or gaps DEL560-576/V654A): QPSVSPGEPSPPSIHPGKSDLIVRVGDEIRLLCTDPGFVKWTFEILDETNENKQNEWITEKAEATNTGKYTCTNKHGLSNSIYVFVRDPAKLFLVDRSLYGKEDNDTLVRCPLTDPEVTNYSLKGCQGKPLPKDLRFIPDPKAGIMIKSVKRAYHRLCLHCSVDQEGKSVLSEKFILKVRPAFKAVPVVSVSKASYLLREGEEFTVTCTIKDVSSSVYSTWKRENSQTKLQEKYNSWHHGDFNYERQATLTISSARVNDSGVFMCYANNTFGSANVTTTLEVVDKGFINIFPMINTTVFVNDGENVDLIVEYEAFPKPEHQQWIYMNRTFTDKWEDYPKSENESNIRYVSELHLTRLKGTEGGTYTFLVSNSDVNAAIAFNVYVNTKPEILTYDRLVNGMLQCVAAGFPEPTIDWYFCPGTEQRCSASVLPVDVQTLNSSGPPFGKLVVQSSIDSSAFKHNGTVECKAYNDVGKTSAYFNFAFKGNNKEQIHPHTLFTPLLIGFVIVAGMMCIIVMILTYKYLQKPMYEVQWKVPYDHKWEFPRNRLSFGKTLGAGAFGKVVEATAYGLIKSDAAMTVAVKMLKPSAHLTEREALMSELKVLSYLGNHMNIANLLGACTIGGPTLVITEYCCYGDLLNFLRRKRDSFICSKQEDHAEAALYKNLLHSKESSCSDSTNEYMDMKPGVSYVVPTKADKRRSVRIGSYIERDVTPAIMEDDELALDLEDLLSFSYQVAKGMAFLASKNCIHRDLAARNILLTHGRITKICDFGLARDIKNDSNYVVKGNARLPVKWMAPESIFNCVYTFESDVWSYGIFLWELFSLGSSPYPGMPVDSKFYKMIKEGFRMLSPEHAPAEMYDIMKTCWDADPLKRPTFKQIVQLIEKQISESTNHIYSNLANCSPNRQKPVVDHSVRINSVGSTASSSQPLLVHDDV
- protocol-notes: Cellular cKIT autophosphorylation (phospho-Y307-cKIT, Luminex bead assay) in GIST430/654 cells
- test-settings: compounds 45 min, read-out: GIST 430/654 IC50
observable: pIC50
// returns pIC50 (minus log10 of molar concentration), number only

Examples from the recorded data:
{"compound": "Cc1nc(-c2ccc(CNc3cc(-c4cnc5cc(OCCO)ccn45)ncn3)cc2)co1", "pIC50": 7.13}
{"compound": "Cn1cc(-c2ccc(CNc3cc(-c4cnc5cc(CCN6CCCC6)ccn45)ncn3)cc2)cn1", "pIC50": 6.20}
{"compound": "Cn1cc(-c2ccc(CNc3cc(-c4cnc5cc(OCCN6CCOCC6=O)ccn45)ncn3)cc2)cn1", "pIC50": 7.06}
{"compound": "Cn1ncc(-c2ccc(CNc3cc(-c4cnc5cc(OCc6ccccn6)ccn45)ncn3)cc2)n1", "pIC50": 6.43}
{"compound": "c1ccn2c(-c3cc(NCc4ccc(-n5cccn5)cc4)ncn3)cnc2c1", "pIC50": 6.72}

Entry Cn1cc(-c2ccc(CNc3cc(-c4cnc5cc(F)ccn45)ncn3)cc2)cn1 ; pIC50 = 6.62

Entry Cn1cc(-c2ccc(CNc3cc(-c4cnc5cc(OCCN6CCCC(F)(F)C6)ccn45)ncn3)cc2)cn1 ; pIC50 = 6.82

Entry CN1CCC(Oc2ccn3c(-c4cc(NCc5ccc(-c6cnn(C)c6)cc5)ncn4)cnc3c2)CC1 ; pIC50 = 7.08

Entry Cn1cc(-c2ccc(CNc3cc(-c4cnc5cc(OCC6CCN(C7CC7)CC6)ccn45)ncn3)cc2)cn1 ; pIC50 = 6.42

Source listed as patent US12655142B2.
